- System: choroidal neovascularization models in rats
- assay-details: Neovascularization incidence test using laser-induced choroidal neovascularization models in rats
- Type: in vivo
- conditions-used: 168 h; Brown Norway rat, krypton laser photocoagulation; 30 mg/kg/day oral once a day for 7 days; fluorescein fundus photography on day 7; average of 3 to 4 rats and 6 to 8 eyes; read-out: Ratio of neovascularization incidence rate (% of Control)
Structures can show the parent of a compound that is named as a salt.
Param threshold (8%) applies to response vs control in vivo at 30 mg/kg/day; output y when value >= threshold, n when value < threshold.

Does CC(=O)Nc1cc(CSc2ncccc2C(=O)Nc2cc(C)cc(C)c2)ccn1 have a reported response vs control in vivo at 30 mg/kg/day of at least 8%?
n

Does Nc1cc(CSc2ncccc2C(=O)Nc2ccc(OC(F)(F)F)cc2)ccn1 have a reported response vs control in vivo at 30 mg/kg/day of at least 8%?
n

Does Cc1cc(C)cc(NC(=O)c2cccnc2SCc2ccnc(N)c2)c1 [Compound 3-1, monohydrochloride] have a reported response vs control in vivo at 30 mg/kg/day of at least 8%?
y

Does O=C(CO)Nc1cc(CSc2ncccc2C(=O)Nc2ccc(OC(F)(F)F)cc2)ccn1 have a reported response vs control in vivo at 30 mg/kg/day of at least 8%?
n

Does CC(=O)Nc1cc(CSc2ncccc2C(=O)Nc2cccc(C)c2)ccn1 have a reported response vs control in vivo at 30 mg/kg/day of at least 8%?
y

Does CNc1cc(CSc2ncccc2C(=O)Nc2ccc(OC(F)(F)F)cc2)ccn1 [Compound 3-8, monohydrochloride] have a reported response vs control in vivo at 30 mg/kg/day of at least 8%?
n

Does CC(=O)Nc1cc(CSc2ncccc2C(=O)Nc2ccc(OC(F)(F)F)cc2)ccn1 have a reported response vs control in vivo at 30 mg/kg/day of at least 8%?
n

Does CC(=O)N1CCN(c2cc(CSc3ncccc3C(=O)Nc3cc(C)cc(C)c3)ccn2)CC1 have a reported response vs control in vivo at 30 mg/kg/day of at least 8%?
y

Does CC(=O)OCC(=O)Nc1cc(CSc2ncccc2C(=O)Nc2cc(C)cc(C)c2)ccn1 have a reported response vs control in vivo at 30 mg/kg/day of at least 8%?
y

Does CC(=O)Nc1cc(CSc2ncccc2C(=O)Nc2ccc(Cl)cc2)ccn1 have a reported response vs control in vivo at 30 mg/kg/day of at least 8%?
y
